# System Under Test: recombinant SARS-CoV-2 Main protease (Mpro) (Severe acute respiratory syndrome coronavirus 2 (2019-nCoV) (SARS-CoV-2), UniProt P0DTD1)
# Protocol Notes: Cov Mpro Biochemical IC50 Assay
# Condition Context: recombinant SARS-CoV-2 Mpro 7.5 nM, fluorogenic peptide substrate 40 μM; read-out: MPro IC50
Parameter: IC50. Scope: all listed entries.
# value in nM; strip the unit string

{"Molecule": "COc1cc(-c2cc3c(s2)c(=O)n(-c2cncc4cc(F)ccc24)c(=O)n3CCC#N)c(Cl)cc1F", "IC50 [nM]": 9.45}
{"Molecule": "COc1cc(C#N)c(-c2cc3c(s2)c(=O)n(-c2cncc4cnn(C)c24)c(=O)n3CCC#N)cc1F", "IC50 [nM]": 20}
{"Molecule": "Cc1cnc(F)c(-n2c(=O)c3sc(-c4ccccc4Cl)cc3n(CCC#N)c2=O)c1", "IC50 [nM]": 3.68}
{"Molecule": "Cc1c(Cl)cncc1-n1c(=O)c2sc(-c3cc(F)c(F)cc3Cl)cc2n(CCC#N)c1=O", "IC50 [nM]": 8.09}
{"Molecule": "COc1cc(-c2cc3[nH]c(=O)n(-c4cncc5ccc(C)nc45)c(=O)c3s2)c(Cl)cc1F (single isomer, unassigned) [Example 1034]", "IC50 [nM]": 3.13}
{"Molecule": "COc1cc(-c2cc3c(s2)c(=O)n(-c2cncc4cnn(C)c24)c(=O)n3CC2(CC#N)CC2)c(Cl)cc1F", "IC50 [nM]": 40.9}

Alright, here's another molecule for you.
Recorded IC50 for Cn1ncc2cncc(-n3c(=O)c4sc(-c5cc(F)c(F)cc5Cl)cc4n(CCC#N)c3=O)c21 [Example 790] , please?
12.6

Reference source for all entries: patent US20240116946A1
